Run description: Solubility at 25° C., 24 hours slurry
Assay type: physicochemical
Details: borate buffer, 25 °C, pH 9, aqueous buffer, thermodynamic from solid, Borate buffer, pH 9.0; read-out: Solubility at 25° C.
Measured endpoint: solubility at 24 h

-- ask Which solubility at 24 h is reported for this compound? Cc1ccc(NC(=O)c2ccnc(C(F)(F)F)c2)cc1-c1cc(OCCO)nc(N2CCOCC2)c1 [Form A]
-- reply < 0.3 µg/mL

----------
Run description: Solubility at 25° C., 24 hours slurry
Assay type: physicochemical
Details: dichloromethane, 25 °C, organic solvent or mixture, thermodynamic from solid, Dichloromethane; read-out: Solubility at 25° C.
Measured endpoint: solubility at 24 h

-- ask Which solubility at 24 h is reported for this molecule? Cc1ccc(NC(=O)c2ccnc(C(F)(F)F)c2)cc1-c1cc(OCCO)nc(N2CCOCC2)c1 [Form A]
-- reply > 10000 µg/mL

----------
Run description: Solubility at 25° C., 24 hours slurry
Assay type: physicochemical
Details: methanol, 25 °C, organic solvent or mixture, thermodynamic from solid, Methanol; approx. at 25° C.; target concentration 10 mg/mL; read-out: Solubility
Measured endpoint: solubility at 24 h

-- ask Which solubility at 24 h is reported for this molecule? Cc1ccc(NC(=O)c2ccnc(C(F)(F)F)c2)cc1-c1cc(OCCO)nc(N2CCOCC2)c1 [Monohydrate HA]
-- reply > 10000 µg/mL

----------
Run description: Solubility at 25° C., 24 hours slurry
Type: physicochemical
Details: ethanol abs., 25 °C, organic solvent or mixture, thermodynamic from solid, Ethanol abs.; approx. at 25° C.; target concentration 10 mg/mL; read-out: Solubility
Measured endpoint: solubility at 24 h

-- ask Which solubility at 24 h is reported for this compound? Cc1ccc(NC(=O)c2ccnc(C(F)(F)F)c2)cc1-c1cc(OCCO)nc(N2CCOCC2)c1 [Monohydrate HA]
-- reply > 10000 µg/mL

----------
Run description: Solubility at 25° C., 24 hours slurry
Type: physicochemical
Details: N,N-dimethylformamide, 25 °C, organic solvent or mixture, thermodynamic from solid, N,N-Dimethylformamide; read-out: Solubility at 25° C.
Measured endpoint: solubility at 24 h

-- ask Which solubility at 24 h is reported for this compound? Cc1ccc(NC(=O)c2ccnc(C(F)(F)F)c2)cc1-c1cc(OCCO)nc(N2CCOCC2)c1 [Form A]
-- reply > 10000 µg/mL

----------
Run description: Solubility at 25° C., 24 hours slurry
Format: physicochemical
Details: dichloromethane, 25 °C, organic solvent or mixture, thermodynamic from solid, Dichloromethane; approx. at 25° C.; target concentration 10 mg/mL; read-out: Solubility
Measured endpoint: solubility at 24 h

-- ask Which solubility at 24 h is reported for this compound? Cc1ccc(NC(=O)c2ccnc(C(F)(F)F)c2)cc1-c1cc(OCCO)nc(N2CCOCC2)c1 [Monohydrate HA]
-- reply > 10000 µg/mL

----------
Run description: Solubility at 25° C., 24 hours slurry
Type: physicochemical
Details: heptane, 25 °C, organic solvent or mixture, thermodynamic from solid, Heptane; read-out: Solubility at 25° C.
Experimental: A sample was weighed in a glass vial and solvent added to make a slurry followed by stirring or shaking at 25° C. for 24 hours. The amount of sample and solvents depends on the target concentration, e.g. if the target concentration is 10 mg/mL, the weight of the sample should be 10 mg and the amount of solvent volume should be 1 mL. […] The solids obtained after equilibration were analyzed by XRPD after being dried at 40° C. under vacuum for 2 hours. […]
Measured endpoint: solubility at 24 h

-- ask Which solubility at 24 h is reported for this molecule? Cc1ccc(NC(=O)c2ccnc(C(F)(F)F)c2)cc1-c1cc(OCCO)nc(N2CCOCC2)c1 [Form B]
-- reply < 0.2 µg/mL

----------
Run description: Solubility at 25° C., 24 hours slurry
Type: physicochemical
Details: acetate buffer, 25 °C, pH 4.7, aqueous buffer, thermodynamic from solid, Acetate buffer, pH 4.7; read-out: Solubility at 25° C.
Measured endpoint: solubility at 24 h

-- ask Which solubility at 24 h is reported for this compound? Cc1ccc(NC(=O)c2ccnc(C(F)(F)F)c2)cc1-c1cc(OCCO)nc(N2CCOCC2)c1 [Form A]
-- reply < 0.3 µg/mL

----------
Run description: Solubility at 25° C., 24 hours slurry
Format: physicochemical
Details: acetonitrile, 25 °C, organic solvent or mixture, thermodynamic from solid, Acetonitrile; read-out: Solubility at 25° C.
Measured endpoint: solubility at 24 h

-- ask Which solubility at 24 h is reported for this compound? Cc1ccc(NC(=O)c2ccnc(C(F)(F)F)c2)cc1-c1cc(OCCO)nc(N2CCOCC2)c1 [Form A]
-- reply > 10000 µg/mL

----------
Run description: Solubility at 25° C., 24 hours slurry
Format: physicochemical
Details: ethyl acetate, 25 °C, organic solvent or mixture, thermodynamic from solid, Ethyl acetate; read-out: Solubility at 25° C.
Measured endpoint: solubility at 24 h

-- ask Which solubility at 24 h is reported for this molecule? Cc1ccc(NC(=O)c2ccnc(C(F)(F)F)c2)cc1-c1cc(OCCO)nc(N2CCOCC2)c1 [Form A]
-- reply > 10000 µg/mL

----------
Run description: Solubility at 25° C., 24 hours slurry
Format: physicochemical
Details: ethanol, 25 °C, organic solvent or mixture, thermodynamic from solid, Ethanol; read-out: Solubility at 25° C.
Measured endpoint: solubility at 24 h

-- ask Which solubility at 24 h is reported for this compound? Cc1ccc(NC(=O)c2ccnc(C(F)(F)F)c2)cc1-c1cc(OCCO)nc(N2CCOCC2)c1 [Form A]
-- reply > 10000 µg/mL

----------
Run description: Solubility at 25° C., 24 hours slurry
Format: physicochemical
Details: phosphate buffer, 25 °C, pH 6.8, aqueous buffer, thermodynamic from solid, Phosphate buffer, pH 6.8; read-out: Solubility at 25° C.
Measured endpoint: solubility at 24 h

-- ask Which solubility at 24 h is reported for this compound? Cc1ccc(NC(=O)c2ccnc(C(F)(F)F)c2)cc1-c1cc(OCCO)nc(N2CCOCC2)c1 [Form A]
-- reply < 0.3 µg/mL
